test system: SCC25 cells; assay: Cell proliferation assay in SCC25 cells, CellTiter-Glo (Example 25); format: cell-based, human; conditions: 0.04 μM, free uptake, 144 hours
Output criterion met for cell proliferation (luminescence) % UTC not less than 80 % UTC; output criterion not met otherwise.

1198605 (GTAATATTGCAATCTG; modified gapmer, further chemistry not given here) [compound 1198605]    criterion not met

Ask: Hello, I need to know if CGCCGATAAGGTACAC (cEt gapmer, phosphorothioate backbone, further chemistry not given here) [ION 792169, reference compound] has measured cell proliferation (luminescence) % UTC not below 80 % UTC. Thanks!
Reply: criterion met

Ask: Could you verify whether the entry 1198440 (AAGTGTATGTCAGAAG; cEt, 2'-MOE, 5-methylcytosine, phosphorothioate modifications, further chemistry not given here) [compound 1198440] shows cell proliferation (luminescence) % UTC of no less than 80 % UTC?
Reply: criterion not met

Ask: Check this substance for cell proliferation (luminescence) % UTC at or above 80 % UTC: 1198831 (CACTTTTACATTAGGA; chemically modified gapmer, further chemistry not given here) [compound 1198831]
Reply: criterion met

Ask: Exam item: decide whether the reported cell proliferation (luminescence) % UTC for 1198439 (AGTGTATGTCAGAAGA; sugar, 5-methylcytosine, phosphorothioate modifications, further chemistry not given here) [compound 1198439] is at least 80 % UTC.
Reply: criterion not met
